These entries and their values trace back to paper PMC4336329.

# tested_target: human ether-à-go-go-related gene (hERG) potassium channel (human);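 further: peak tail current of the secondary pulse compared with the same well before compound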
# Sequence (Q12809 whole entry, looked up): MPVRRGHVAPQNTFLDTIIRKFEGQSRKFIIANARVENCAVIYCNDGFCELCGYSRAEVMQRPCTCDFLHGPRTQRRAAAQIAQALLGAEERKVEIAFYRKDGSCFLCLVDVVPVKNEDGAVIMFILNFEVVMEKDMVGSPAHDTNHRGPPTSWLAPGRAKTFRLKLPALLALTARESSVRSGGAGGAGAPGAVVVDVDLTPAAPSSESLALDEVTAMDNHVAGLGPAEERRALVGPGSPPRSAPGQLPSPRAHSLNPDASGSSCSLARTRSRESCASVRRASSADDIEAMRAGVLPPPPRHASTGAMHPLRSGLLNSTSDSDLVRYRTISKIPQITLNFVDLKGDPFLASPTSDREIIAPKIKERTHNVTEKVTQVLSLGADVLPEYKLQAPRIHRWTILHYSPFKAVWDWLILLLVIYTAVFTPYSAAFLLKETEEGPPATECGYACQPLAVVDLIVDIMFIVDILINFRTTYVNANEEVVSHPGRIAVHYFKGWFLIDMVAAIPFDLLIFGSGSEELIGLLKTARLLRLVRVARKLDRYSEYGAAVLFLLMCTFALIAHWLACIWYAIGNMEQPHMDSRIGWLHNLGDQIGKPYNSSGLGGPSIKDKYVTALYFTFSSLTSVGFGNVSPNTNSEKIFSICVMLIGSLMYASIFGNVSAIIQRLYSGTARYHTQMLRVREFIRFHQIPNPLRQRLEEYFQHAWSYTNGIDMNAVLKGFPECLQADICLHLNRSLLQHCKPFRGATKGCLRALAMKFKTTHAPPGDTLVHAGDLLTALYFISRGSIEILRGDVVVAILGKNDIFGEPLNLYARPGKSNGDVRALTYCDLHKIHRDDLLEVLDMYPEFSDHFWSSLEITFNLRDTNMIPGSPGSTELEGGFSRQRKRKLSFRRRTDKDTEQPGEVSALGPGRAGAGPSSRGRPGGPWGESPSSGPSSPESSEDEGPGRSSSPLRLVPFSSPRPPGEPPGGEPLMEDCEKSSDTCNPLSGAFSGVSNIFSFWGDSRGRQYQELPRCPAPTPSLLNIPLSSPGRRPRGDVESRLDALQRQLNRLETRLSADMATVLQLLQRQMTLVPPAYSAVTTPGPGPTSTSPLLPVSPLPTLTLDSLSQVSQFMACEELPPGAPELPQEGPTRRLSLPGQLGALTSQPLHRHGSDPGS
# procedure_details: primary screen, population patch clamp on CHO cells stably expressing hERG; higher = less effect of the substance
About 14,000 (4.5%) of roughly 310,000 compounds showed an effect of 50% or more. The effect is printed as a negative number. The entries come from a sample that favours strong results as a whole.
reported_endpoint: hERG current change (%, negative = inhibition) at 10uM (%)

# compound, units_of_measure, test_result
records = [
    ("O=C(Cn1[nH]c(=O)c2ccccc2c1=O)NC1CCN(Cc2ccccc2)CC1", "%", 0.791),
    ("COc1ccc(N2CC(C(=O)OCC(=O)Nc3ccccc3C)CC2=O)cc1 (stereo not drawn)", "%", 15.6),
    ("O=C(C[n+]1cc(-c2ccc(Cl)cc2)n2c1CCC2)Nc1nc(-c2ccccc2)cs1.[Cl-]", "%", -0.843),
    ("O=C(C[n+]1cc(-c2ccccc2)n2c1CCC2)Nc1nc(-c2ccccc2)cs1.[Cl-]", "%", -35.1),
    ("Cc1ccc(-c2c[n+](CC(=O)Nc3nc(-c4ccccc4)cs3)c3n2CCC3)cc1.[Cl-]", "%", -54.9),
    ("Cc1cccc(N2C(S)=C(C#N)C(=O)NC23CCCCC3)c1", "%", -7.13),
    ("COc1ccc(CNC(=O)C2C3C=CC4(CN(Cc5cccnc5)C(=O)C24)O3)cc1 (stereo not drawn)", "%", -16.2),
    ("CCCC(=O)Nc1ccc(C(=O)NNC(=O)c2cccs2)cc1", "%", 12.2),
    ("COc1ccc(/C=C(/NC(=O)c2ccccc2)C(=O)NC(Cc2c[nH]c3ccccc23)C(=O)O)cc1 (stereo not drawn)", "%", 14.5),
]

---

Consider the following compounds and their measured hERG current change (%, negative = inhibition) at 10uM readings.
# tested_target: human ether-à-go-go-related gene (hERG) potassium channel (human);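 further: peak tail current of the secondary pulse compared with the same well before compound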
# procedure_details: primary screen, population patch clamp on CHO cells stably expressing hERG; higher = less effect of the substance
The campaign covered roughly 310,000 compounds. About 14,000 (4.5%) showed an effect of 50% or more. The effect is printed as a negative number. Shown is part of a subset that was picked to be rich in strong results.
reported_endpoint: hERG current change (%, negative = inhibition) at 10uM (%)

# compound, units_of_measure, test_result
data = [
    ("O=C(CCCN1C(=O)/C(=C/c2ccccc2Cl)SC1=S)NNC(=O)c1ccccc1Cl", "%", 29.8),
    ("CN(C)c1ccc(/C=C(\\NC(=O)c2ccccc2)C(=O)NCc2ccncc2)cc1", "%", -12.8),
    ("CC(C)CC(COCc1cccc(C(F)(F)F)c1)N1CCN(C(=O)c2cccc(C(F)(F)F)c2)CCC1=O (stereo not drawn)", "%", -12),
    ("O=C(NCc1ccc(F)cc1)c1ccncc1", "%", 13.7),
    ("O=C(Nc1nc2ccccc2s1)c1cccc(S(=O)(=O)N2CCc3ccccc32)c1", "%", -7.03),
    ("O=C(COc1ccc2c3c(c(=O)oc2c1)CCC3)NC(Cc1ccc(Cl)cc1)C(=O)O (stereo not drawn)", "%", 3.55),
    ("CSc1ccc(/C=C(\\NC(=O)c2ccc(C)cc2)C(=O)NN)cc1", "%", -10.9),
    ("CSc1ccccc1NC(=O)CN(C)S(=O)(=O)c1ccc(F)cc1", "%", -35.2),
    ("CCOC(=O)c1ccc(N=Nc2c(C)c(C#N)c(O)[nH]c2=O)cc1", "%", 1.91),
]
